These entries and their values trace back to PubChem BioAssay.

Here, each record is paired with measured z-score data.
- EXPERIMENTAL_PROTOCOL: RPMI8226 myeloma cell viability, profiling panel, resazurin fluorescence, basal, 24 h, PK04 Diversity Set (AID 1180);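 further: RPMI8826 multiple myeloma cell line at 5000 cells per well; test concentration not given here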
- SETUP_CONDITIONS: higher = more signal
Keep it simple and answer with nothing but the number.

Challenge: What measured z-score goes with CC(C)C(O)C1C=CC2C(=O)NC(=O)C2N1Nc1ccc(Cl)cc1Cl (centres undefined) ?
Response given: -1.93

###

- EXPERIMENTAL_PROTOCOL: osmotic lysis modulators in infected erythrocytes, primary screen, PSAC antagonist project, cell-based, P. falciparum Indochina, OD700, 3 h (AID 1156)
- SETUP_CONDITIONS: higher = more signal, called active from +8 up or from −8 down
Below, each entry is listed alongside its reported z-score.
Just the number, please.

// worked examples, z-score included
COMPOUND: CCOC(=O)[C@H]1C/C=C/C[C@H](C(=O)OCC)C(=O)O[C@H]2[C@@H](OC)O[C@H](CO)[C@@H](OC(=O)c3c(OC)cccc3OC)[C@@H]2OC1=O
EXPERIMENTAL_READOUT: z-score
NUMERIC_VALUE: -0.083
--
COMPOUND: CCCC[C@H]1OB(O)C[C@H]2C1=C(COC)Cn1c(=O)n(-c3ccccc3)c(=O)n12
EXPERIMENTAL_READOUT: z-score
NUMERIC_VALUE: 0.11
--
COMPOUND: O=C(OCc1ccccc1)C1=CCC2c3[nH]c4ccccc4c3C(=O)C1N2S(=O)(=O)c1ccccc1[N+](=O)[O-] (stereo not drawn)
EXPERIMENTAL_READOUT: z-score
NUMERIC_VALUE: 0.105
--
COMPOUND: CN1C(=O)C2C=CC(C(O)c3ccc([N+](=O)[O-])cc3)N(N3CCCCC3)C2C1=O (stereo not drawn)
EXPERIMENTAL_READOUT: z-score
NUMERIC_VALUE: -0.0207
--
COMPOUND: O=C(c1ccccc1)N1Cc2ccccc2C[C@@]2(COC(c3ccc(OCCCO)cc3)=N2)C1=O
EXPERIMENTAL_READOUT: z-score
NUMERIC_VALUE: 4.66
--
COMPOUND: C=C(COC)/C(=C/C[C@H](OC(C)=O)c1ccc(CO)o1)c1cc(C(=O)OC)ccc1OC
EXPERIMENTAL_READOUT: z-score
NUMERIC_VALUE: 0.672

Challenge: Give its z-score value. Item: O=C1C2C=CC(C(O)c3cccc4ccccc34)N(Nc3ccccc3F)C2C(=O)N1c1ccccc1 (stereo not drawn)
Response given: -0.481

Challenge: z-score lookup needed for CC(C)=CCN[C@H](CO)c1ccccc1 , thanks.
Response given: 0.198

###

- EXPERIMENTAL_PROTOCOL: small-molecule microarray binders of probe aShh, primary screen, biochemical, biotinylated probe, 635/667 nm fluorescence (AID 1114);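 further: probe is biotin-labelled aShh protein from a stem cell growth factor screen; measures binding of labelled protein to compounds printed on the slide; score merges feature fluorescence at 667 nm with signal-to-noise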
- SETUP_CONDITIONS: higher = more signal
EXPERIMENTAL_READOUT: composite z-score
Returns: the value as a bare number; no unit string appended.

COMPOUND: O=C(c1ccccc1)N1C(=O)[C@@]2(Cc3ccccc31)N=C(c1ccc(OCCCO)cc1)O[C@H]2c1ccccc1
NUMERIC_VALUE: -0.369
--
COMPOUND: COc1cc2c(cc1O)C(c1cccs1)N(C)CC2 (centres undefined)
NUMERIC_VALUE: -0.2
--
COMPOUND: COCCOC(=O)N1C(=O)[C@@]2(c3cc(C#Cc4ccc(OC)cc4)ccc31)[C@H](c1ccc(OCCO)cc1)N1[C@H](c3ccccc3)[C@H](c3ccccc3)OC(=O)[C@H]1[C@@H]2C(=O)N1CCN(c2ncccn2)CC1
NUMERIC_VALUE: -0.26

Challenge: Value lookup for composite z-score; key = C=CC(=C)[C@H]1Oc2ccccc2S(=O)(=O)N2CCC[C@@H]12
Response given: -0.0211

Challenge: Entry C=C(COC)/C(=C/C[C@@H](OC(C)=O)c1ccc(OCCO)cc1)c1cnc2ccccc2c1 has what composite z-score?
Response given: 0.0557

Challenge: Requested field: composite z-score. Item: Oc1ccc2cc[n+](Cc3sc4ccccc4c3Cl)cc2c1
Response given: 0.318

Challenge: Looking for the measured composite z-score of CN(C)C(=O)[C@]1(Cc2ccccc2N=[N+]=[N-])N=C(c2ccc(OCCCO)cc2)O[C@@H]1c1ccccc1N=[N+]=[N-] , can you help?
Response given: 0.0796

###

Reported values of z-score for individual entries
- EXPERIMENTAL_PROTOCOL: A549 lung cancer cell viability effects, profiling panel, resazurin fluorescence, 24 h, PK04 Diversity Set (AID 1171); further: test concentration not given here
- SETUP_CONDITIONS: higher = more signal, called active from +8 up or from −8 down
Calls of active or inactive are those of the source.

TEST_SMILES: CC(C)CNC(=O)[C@@]1(Cc2ccccc2I)c2ccccc2C(=O)N(C2CCCCC2)[C@H]1c1ccc(CO)cc1
z-score: 0.623 (inactive)

Kindly review the next molecule as well.
Challenge: Look up z-score: C=C(/C(=C/C[C@H](OC(C)=O)c1ccccc1OCCO)c1cnc2ccccc2c1)C(C)C
Response given: -0.0361 (inactive)

###

- Tested on: Human papillomavirus type 1a E7 protein (residues 1-88)
- EXPERIMENTAL_PROTOCOL: HPV1a E7 small-molecule binders, primary screen, biochemical, small-molecule microarray, residues 1-88, 635 nm (AID 1129)
- SETUP_CONDITIONS: small-molecule microarray binding, fluorescence 635 nm; higher = more signal
EXPERIMENTAL_READOUT: composite z-score
Answer using only a numeral; do not append any unit.

Challenge: Would you mind telling me what composite z-score value was observed for COC(=O)[C@@]1(Cc2ccc(OC)cc2)[C@H]2c3cc(C(=O)N(C)C)n(CCc4ccccn4)c3C[C@H]2CN1C(=O)c1ccccc1 ?
Response given: 0.815

Challenge: Field request: composite z-score | item: NC(=O)NCC#Cc1ccc2c(c1)[C@]1(C(=O)N2)[C@H](C(N)=O)[C@H]2C(=O)O[C@H](c3ccccc3)[C@H](c3ccccc3)N2[C@@H]1c1ccc(O)cc1
Response given: -0.655

Challenge: What measured composite z-score goes with CC(C)(C)OC(=O)CC[C@]1(C(=O)N2CCOCC2)N=C(c2ccc(OCCCO)cc2)O[C@H]1c1ccccc1N=[N+]=[N-] ?
Response given: 1.27

###

- EXPERIMENTAL_PROTOCOL: E. coli acrAB mutant growth effects, primary screen, E. coli filamentation inducers, strain DRC39, OD650, 48 h (AID 1179);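 further: screen aims at cell division blockers that make cells filament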
- SETUP_CONDITIONS: E. coli DRC39 delta-acrAB growth, higher = more signal, called active from +8 up or from −8 down
EXPERIMENTAL_READOUT: z-score
Answer with a bare number; do not write a unit.

Example entries and their recorded answers appear below.
MOLECULE: COCCOC(=O)N1C(=O)[C@@]2(c3cc(C#CCC(C(=O)OC)C(=O)OC)ccc31)[C@H](c1ccccc1OCCO)N1[C@H](c3ccccc3)[C@H](c3ccccc3)OC(=O)[C@H]1[C@@H]2C(=O)N1CCN(c2ncccn2)CC1
z-score: 0.519

MOLECULE: COC(=O)[C@@]1(Cc2ccc(OC)cc2)[C@H]2c3cc(C(=O)N(C)C)n(C)c3C[C@H]2CN1C(=O)c1ccccc1
z-score: -1.28

MOLECULE: C=CCC(OC(C)=O)[C@@H]1[C@@H](N(Cc2cc3ccccc3o2)C(=O)c2cccc3ccccc23)c2cc(OCCCO)ccc2N1C(=O)c1ccc(-c2ccccc2)cc1 (some centres not stated)
z-score: -0.11

MOLECULE: COc1cc2c(cc1O)C(C1CC1)N(Cc1sc3ccccc3c1Cl)CC2 (configuration not stated)
z-score: -0.75

MOLECULE: COc1ccc(C#Cc2ccc3c(c2)[C@]2(C(=O)N3)[C@H](C(=O)NC[C@H](O)c3ccccc3)[C@H]3C(=O)O[C@H](c4ccccc4)[C@H](c4ccccc4)N3[C@@H]2c2ccc(O)cc2)cc1
z-score: 0.51

MOLECULE: CCCC#C[Si](O[C@H](CC)c1cn(Cc2cccc(Cl)c2)nn1)(C(C)C)C(C)C
z-score: 0.775

MOLECULE: NC(=O)NCC#Cc1ccc2c(c1)[C@]1(C(=O)N2)[C@H](c2ccc(O)cc2)N2[C@H](c3ccccc3)[C@H](c3ccccc3)OC(=O)[C@H]2[C@@H]1C(=O)O
z-score: -0.176

MOLECULE: CO[C@H]1O[C@H](CO)[C@@H](OC(=O)Nc2ccc(C(F)(F)F)cc2)[C@H](OC(=O)Nc2ccc3c(c2)OCO3)[C@@H]1OC(=O)Nc1ccc2c(c1)OCO2
z-score: 0.2

Challenge: Any idea what its z-score is? The molecule is CC(C)C[C@@H]1NC(=O)[C@@H]2C[C@H](C(=O)O)[C@H](c3cccc(OCCO)c3)N2C1=O
Response given: -0.263

Challenge: Reported z-score, molecule COC(=O)[C@@]1(Cc2ccc(OC)cc2)[C@H]2c3cc(C(=O)N(C)C)n(Cc4ccc(S(C)(=O)=O)cc4)c3C[C@H]2CN1C(=O)c1ccccc1 : ____
Response given: -0.441
